MEASURED ON: T1, Recombinant S. cerevisiae PCNA with an His-Tag (S. cerevisiae, UniProt P15873 1-258)
T1 construct: PCNA (proliferating cell nuclear antigen, gene POL30), S. cerevisiae; also called purified PCNA; source: E. coli (pET28c), purified on a HisTrap column
T1 sequence (looked up): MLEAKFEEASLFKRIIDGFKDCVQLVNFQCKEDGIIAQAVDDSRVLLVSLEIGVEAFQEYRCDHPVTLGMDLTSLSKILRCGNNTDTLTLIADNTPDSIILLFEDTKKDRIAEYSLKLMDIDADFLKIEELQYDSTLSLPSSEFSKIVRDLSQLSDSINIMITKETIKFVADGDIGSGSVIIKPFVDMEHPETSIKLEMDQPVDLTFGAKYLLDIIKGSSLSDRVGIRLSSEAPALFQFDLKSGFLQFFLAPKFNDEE
PROTOCOL DESCRIPTION: ITC; VP-ITC; 20–25 μM PCNA in the cell, 270 μM peptide in the syringe; 30°C; buffer T (20 mM Tris pH 7.5, 50 mM NaCl, 20 mM β-mercaptoethanol); single set of independent binding sites model
CONDITION INFO: both partners purified
ASSAY METRIC: pKd
# pKd: negative log10 of molar concentration; output just the value

BINDER	QUANTITATIVE READOUT
QKKMKQSSLLSFFSKQVPSGTP (Msh6, S. cerevisiae, residues 22-43 with the canonical PIP motif; also called Msh6 peptide; canonical PIP motif of Msh6; source: synthetic peptide, bought: Genecust, 95% purity) [pMsh6 22–43]	6.51

Next binder, please.
Quick check: pKd of KRLKKQGTLESFFKRKAK (Pol32 (C subunit of DNA polymerase delta), S. cerevisiae, residues 333-350 (the C-terminal end; K is the last residue of Pol32) with the PIP motif QxxLxxFF; also called Pol32 peptide; Pol32 PIP motif peptide; source: synthetic peptide, bought: Genecust, 95% purity) [pPol32 333–350] ?
6.34
